ED50 by entry:
- System: tetrabenazine-induced sedation and depression in mice
- Protocol notes: Antagonism of tetrabenazine-induced depression in mice orally at 1 hour post-drug
- Assay type: in vivo, Carworth CF1 S female mice
- Experimental conditions: Mus musculus, oral, 1 hour post-drug (30 minutes after tetrabenazine 32 mg/kg intraperitoneally), lid closure less than 50% in both eyes, read-out: ED50 for prevention of ptosis

{"Compound": "CC1C2C(CCN1C)c1ccccc1N2c1ccccc1 (stereo not drawn)", "Bound type": "=", "ED50, mg/kg": 16}
{"Compound": "CCN1CC2C(CC1C)c1ccccc1N2c1ccccc1 (stereo not drawn)", "Bound type": "<", "ED50, mg/kg": 5}
{"Compound": "CC(C)N1CCC2c3ccccc3N(c3ccccc3)C2C1C (stereo not drawn)", "Bound type": "=", "ED50, mg/kg": 11.2}
{"Compound": "CCC1C2C(CCN1CC)c1ccccc1N2c1ccccc1 (stereo not drawn)", "Bound type": "=", "ED50, mg/kg": 27}
{"Compound": "CCN1CCC2c3ccccc3N(c3ccccc3)C2C1C (stereo not drawn)", "Bound type": "=", "ED50, mg/kg": 3}
{"Compound": "CC1NCCC2c3ccccc3N(c3ccccc3)C12 (stereo not drawn)", "Bound type": "=", "ED50, mg/kg": 25}
{"Compound": "CCC1C2C(CCN1C)c1ccccc1N2c1ccccc1 (stereo not drawn)", "Bound type": "=", "ED50, mg/kg": 9.1}
{"Compound": "CCCN1CCC2c3ccccc3N(c3ccccc3)C2C1C (stereo not drawn)", "Bound type": "=", "ED50, mg/kg": 14}
{"Compound": "CN(C)CCC=C1c2ccccc2CCc2ccccc21 [Amitriptyline, amitriptyline, reference compound]", "Bound type": "=", "ED50, mg/kg": 1.7}
